# PROTOCOL_TEXT: Proposed mechanism(s) of liver damage. [column 'MEC' in source]
# REPORTED_CONDITIONS: human
READOUT_TYPE: Hepatotoxicity (mechanism)

Consider the following illustrative entries.
MOLECULE | Hepatotoxicity (mechanism)
Nc1nc2ccc(OC(F)(F)F)cc2s1 | Dose-dependant
Cc1onc(-c2c(Cl)cccc2Cl)c1C(=O)N[C@@H]1C(=O)N2[C@@H]1SC(C)(C)[C@@H]2C(=O)O | Allergic
CC(CN(C)C)CN1c2ccccc2CCc2ccccc21 (centres undefined) | Dose-dependant
CN(C)CCCN1c2ccccc2Sc2ccccc21 | Allergic
NCCCC[C@H](N[C@@H](CCc1ccccc1)C(=O)O)C(=O)N1CCC[C@H]1C(=O)O [LISINOPRIL ANHYDROUS] | Allergic

Would you kindly look at the next entry?
Field Hepatotoxicity (mechanism) (entry CCCCN1CCCCC1C(=O)Nc1c(C)cccc1C (centres undefined) ) reads Allergic
